Biological target: sulfated human trypsin PRSS2-SO4 purified from pancreatic juice (Homo sapiens)
Construct: from tissue; host or cells: human pancreatic juice
Sequence (P07478 24-247): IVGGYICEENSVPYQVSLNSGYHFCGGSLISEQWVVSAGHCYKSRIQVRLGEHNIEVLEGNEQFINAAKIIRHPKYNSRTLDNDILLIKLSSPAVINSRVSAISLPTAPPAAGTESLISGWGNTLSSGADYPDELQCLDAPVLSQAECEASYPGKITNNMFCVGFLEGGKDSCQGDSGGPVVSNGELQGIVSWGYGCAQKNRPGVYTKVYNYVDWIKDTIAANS
Experiment: Competitive inhibition kinetics of trypsin, GPR-pNA substrate
Assay type: biochemical
Conditions: Ki dabigatran, Individual fit, mean ± SD, n = 3
Quantity Kind: Ki (nM)
State the answer as a number, implicitly in nM.

Problem: Param item = [H]/N=C(/N)c1ccc(NCc2nc3cc(C(=O)N(CCC(=O)O)c4ccccn4)ccc3n2C)cc1 ; retrieve measured Ki.
Result: 10

* * *

Target: human trypsin isoform PRSS1 (cationic trypsin), recombinant (Homo sapiens)
Construct: made in house; host or cells: Escherichia coli BL21(DE3)
Assay: Competitive inhibition kinetics of trypsin, GPR-pNA substrate
Assay type: biochemical
Settings: Ki benzamidine, Individual fit, mean ± SD, n = 3
Quantity Kind: Ki

Problem: Param item = N=C(N)c1ccccc1 ; retrieve measured Ki.
Result: 15.7 µM

* * *

Target: sulfated human trypsin PRSS1-SO4 purified from pancreatic juice (Homo sapiens)
Construct: from tissue; host or cells: human pancreatic juice
Assay: Competitive inhibition kinetics of trypsin, GPR-pNA substrate
Assay type: biochemical
Conditions: Ki benzamidine, Global fit, mean ± SD, n = 3
Quantity Kind: pKi
pKi is defined as minus the log10 of a concentration measured in mol/L.

Problem: Param item = N=C(N)c1ccccc1 ; retrieve measured pKi.
Result: 4.98

* * *

Biological target: human and mouse trypsin isoforms
Experiment: Ki ranges over the panel of trypsin isoforms
Assay type: biochemical
Settings: range over trypsin isoforms tested; read-out: Ki range, global fit analysis
pKi: −log10 of the molar value.
Quantity Kind: pKi

Problem: Param item = [H]/N=C(/N)c1ccc(NCc2nc3cc(C(=O)N(CCC(=O)O)c4ccccn4)ccc3n2C)cc1 [dabigatran] ; retrieve measured pKi.
Result: 7.10 to 7.99
